Kindly state residual activity for each of the entries shown.
Target: MAPK1 (human) (UniProt P28482)
Sequence (P28482 whole entry, looked up): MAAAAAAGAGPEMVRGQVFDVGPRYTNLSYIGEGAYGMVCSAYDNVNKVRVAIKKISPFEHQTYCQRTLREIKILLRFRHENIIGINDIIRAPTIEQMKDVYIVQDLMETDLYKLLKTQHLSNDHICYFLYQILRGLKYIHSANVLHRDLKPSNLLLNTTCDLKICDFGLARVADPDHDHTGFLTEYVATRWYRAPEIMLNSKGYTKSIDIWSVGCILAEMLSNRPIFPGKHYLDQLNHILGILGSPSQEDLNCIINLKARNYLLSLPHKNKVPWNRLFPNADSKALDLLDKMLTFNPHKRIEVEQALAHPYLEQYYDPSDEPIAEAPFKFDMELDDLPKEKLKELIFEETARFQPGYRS
Assay: radiometric filter-binding kinase assay
Details: compound 1.0 µM; ATP 50 µM
Use % as the unit, but write only the number.

residual activity reported for this compound `O=C1c2ccccc2-c2n[nH]c3cccc1c23` : 86

Item: CO[C@H]1CC2CC[C@@H](C)[C@@](O)(O2)C(=O)C(=O)N2CCCC[C@H]2C(=O)OC([C@H](C)C[C@@H]2CC[C@@H](O)[C@H](OC)C2)CC(=O)[C@H](C)/C=C(\C)[C@@H](O)[C@@H](OC)C(=O)[C@H](C)C[C@H](C)/C=C/C=C/C=C/1C (stereo not given in full) | residual activity: 94

The value of residual activity measured for the compound `COc1ccc2c(c1)=NC1=C(C)NCCC=21` turned out to be 87

The value of residual activity measured for the compound `COC[C@H]1OC(=O)c2coc3c2[C@@]1(C)C1=C(C3=O)[C@@H]2CCC(=O)[C@@]2(C)C[C@H]1OC(C)=O` turned out to be 90

The reported value for `O=S(=O)(NCCNC/C=C/c1ccc(Br)cc1)c1cccc2cnccc12` in terms of residual activity is 88

---

Target: HIPK2 (human) (UniProt Q9H2X6)
Sequence (Q9H2X6 whole entry, looked up): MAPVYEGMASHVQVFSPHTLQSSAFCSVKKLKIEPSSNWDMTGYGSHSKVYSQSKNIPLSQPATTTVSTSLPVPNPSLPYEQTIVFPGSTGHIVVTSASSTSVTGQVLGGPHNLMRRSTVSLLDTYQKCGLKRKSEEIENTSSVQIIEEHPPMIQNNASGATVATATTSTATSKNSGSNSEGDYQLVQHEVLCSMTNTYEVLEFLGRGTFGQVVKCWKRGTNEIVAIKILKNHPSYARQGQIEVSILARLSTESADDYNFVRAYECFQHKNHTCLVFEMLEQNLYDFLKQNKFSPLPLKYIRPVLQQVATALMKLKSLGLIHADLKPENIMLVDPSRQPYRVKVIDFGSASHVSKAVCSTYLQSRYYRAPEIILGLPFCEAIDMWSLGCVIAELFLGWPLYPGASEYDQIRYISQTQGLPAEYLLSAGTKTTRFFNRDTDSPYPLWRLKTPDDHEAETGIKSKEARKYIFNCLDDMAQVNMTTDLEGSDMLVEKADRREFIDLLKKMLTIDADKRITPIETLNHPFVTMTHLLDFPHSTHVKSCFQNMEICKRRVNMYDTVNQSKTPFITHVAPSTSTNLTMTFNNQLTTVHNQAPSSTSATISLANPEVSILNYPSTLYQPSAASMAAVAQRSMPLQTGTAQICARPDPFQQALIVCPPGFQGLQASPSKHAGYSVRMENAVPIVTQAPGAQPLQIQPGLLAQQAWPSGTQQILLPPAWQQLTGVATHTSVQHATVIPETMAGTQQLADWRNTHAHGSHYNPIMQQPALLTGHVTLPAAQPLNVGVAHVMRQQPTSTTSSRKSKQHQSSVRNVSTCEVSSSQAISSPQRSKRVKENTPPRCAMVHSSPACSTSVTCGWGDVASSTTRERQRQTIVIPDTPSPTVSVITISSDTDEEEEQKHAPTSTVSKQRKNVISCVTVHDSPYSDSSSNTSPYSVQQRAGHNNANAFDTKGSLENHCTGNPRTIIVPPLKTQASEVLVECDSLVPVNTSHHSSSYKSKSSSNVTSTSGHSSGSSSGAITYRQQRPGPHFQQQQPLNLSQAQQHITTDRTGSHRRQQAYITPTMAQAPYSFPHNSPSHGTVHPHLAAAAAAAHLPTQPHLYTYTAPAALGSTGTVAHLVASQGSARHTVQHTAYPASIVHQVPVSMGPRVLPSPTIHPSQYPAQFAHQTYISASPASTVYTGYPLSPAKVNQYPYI
Test: radiometric filter-binding kinase assay
Conditions: compound 1.0 µM; ATP 5 µM
What residual activity was measured for each of the following?
Provide the reading as a plain figure in %.

Case CO[C@H]1CC2CC[C@@H](C)[C@@](O)(O2)C(=O)C(=O)N2CCCC[C@H]2C(=O)OC([C@H](C)C[C@@H]2CC[C@@H](O)[C@H](OC)C2)CC(=O)[C@H](C)/C=C(\C)[C@@H](O)[C@@H](OC)C(=O)[C@H](C)C[C@H](C)/C=C/C=C/C=C/1C (stereo partly specified) , HIPK2 (human) (UniProt Q9H2X6), residual activity recorded as 93

Form field, residual activity with HIPK2 (human) (UniProt Q9H2X6), item `O=S(=O)(NCCNC/C=C/c1ccc(Br)cc1)c1cccc2cnccc12` : 101

Record for `CC(C)(N)c1ccc(-c2nc3ccccc3nc2-c2ccccc2)cc1` under target or system HIPK2 (human) (UniProt Q9H2X6): residual activity reported as 102

Fill in: HIPK2 (human) (UniProt Q9H2X6) residual activity for `O=C1c2ccccc2-c2n[nH]c3cccc1c23` = 35

# lookup: `COC[C@H]1OC(=O)c2coc3c2[C@@]1(C)C1=C(C3=O)[C@@H]2CCC(=O)[C@@]2(C)C[C@H]1OC(C)=O` on HIPK2 (human) (UniProt Q9H2X6), residual activity = 94

Tested on HIPK2 (human) (UniProt Q9H2X6), the item `COc1ccc2c(c1)=NC1=C(C)NCCC=21` showed residual activity equal to 91

---

Give measured residual activity for each item. Keep answers brief.
System: SRC (chicken)
Assay: radiometric filter-binding kinase assay
Conditions: compound 1.0 µM; ATP 50 µM; accession and sequence are those of the human protein
The reply should be a number in %, with the unit left off.

Summary for this compound, `CC(C)(C)n1nc(-c2cccc3ccccc23)c2c(N)ncnc21` : residual activity is 20

Reported residual activity ( CO[C@H]1CC2CC[C@@H](C)[C@@](O)(O2)C(=O)C(=O)N2CCCC[C@H]2C(=O)OC([C@H](C)C[C@@H]2CC[C@@H](O)[C@H](OC)C2)CC(=O)[C@H](C)/C=C(\C)[C@@H](O)[C@@H](OC)C(=O)[C@H](C)C[C@H](C)/C=C/C=C/C=C/1C (stereo not given in full) ) = 86

`O=S(=O)(NCCNC/C=C/c1ccc(Br)cc1)c1cccc2cnccc12` has a reported residual activity of 100

The measured residual activity associated with `O=C1c2ccccc2-c2n[nH]c3cccc1c23` reads 89

Entry `COC[C@H]1OC(=O)c2coc3c2[C@@]1(C)C1=C(C3=O)[C@@H]2CCC(=O)[C@@]2(C)C[C@H]1OC(C)=O` ; residual activity = 83

Origin of measurements: the kinase profiling compilation of Christmann-Franck et al. (2016)
